# TEST_DETAILS: Equilibrium solubility in pH buffers (3.0-8.0), 20% captisol and water
# Assay type: physicochemical
# DETAILS: 20% Captisol (pH = 5.0, w/v), 24 hrs
Counter-ions that a name gives are not always drawn.
Exercise: state measured pH of supernatant (final pH) for each of the compounds provided.
Reply briefly: the number, and no unit.

Incoming: Please look up its pH of supernatant (final pH): CC(=O)NCC1CCN(Cc2cc(Oc3ccc(N4CCN(CCC(=O)O)CC4)nc3)nc(-c3cc(Cl)cc(Cl)c3)c2)CC1 [Fumarate Type A]
Outgoing: 4.3

Incoming: Could you tell me which pH of supernatant (final pH) is on file for CC(=O)NCC1CCN(Cc2cc(Oc3ccc(N4CCN(CCC(=O)O)CC4)nc3)nc(-c3cc(Cl)cc(Cl)c3)c2)CC1 [HCl salt Type F] ?
Outgoing: 3.5

Incoming: Data request, read-out pH of supernatant (final pH), for CC(=O)NCC1CCN(Cc2cc(Oc3ccc(N4CCN(CCC(=O)O)CC4)nc3)nc(-c3cc(Cl)cc(Cl)c3)c2)CC1 [Sulfate Type B]
Outgoing: 2.6

Incoming: Bench note: what pH of supernatant (final pH) did CC(=O)NCC1CCN(Cc2cc(Oc3ccc(N4CCN(CCC(=O)O)CC4)nc3)nc(-c3cc(Cl)cc(Cl)c3)c2)CC1 [Freeform Type A] show?
Outgoing: 7.7

====

# TEST_DETAILS: Solubility profile of freeform Type D in citrate buffers
# Format: physicochemical
# DETAILS: aqueous buffer, thermodynamic from solid; 20 mM citrate buffer, buffer pH 4.01, RT, 24 hours, end pH 4.67; read-out: Solubility
ENDPOINT: solubility at 24 h (µg/mL)
Give just the number in µg/mL; leave the unit off.

Incoming: Looking for the measured solubility at 24 h of CC(=O)NCC1CCN(Cc2cc(Oc3ccc(N4CCN(CCC(=O)O)CC4)nc3)nc(-c3cc(Cl)cc(Cl)c3)c2)CC1 [Freeform Type D] , can you help?
Outgoing: 5500

====

# TEST_DETAILS: Solubility profile of freeform Type D in citrate buffers
# Type: physicochemical
# DETAILS: aqueous buffer, thermodynamic from solid; 100 mM citrate buffer, buffer pH 4.07, RT, 24 hours, end pH 4.88; read-out: Solubility
ENDPOINT: solubility at 24 h (mg/mL)
// note: answer is a bare numeric in mg/mL

Incoming: I'd like to know its solubility at 24 h. The molecule in question is CC(=O)NCC1CCN(Cc2cc(Oc3ccc(N4CCN(CCC(=O)O)CC4)nc3)nc(-c3cc(Cl)cc(Cl)c3)c2)CC1 [Freeform Type D]
Outgoing: 56.8

====

# TEST_DETAILS: Complexation stability constant test: solubility in HPβCD solutions
# Type: physicochemical
# DETAILS: 5% (w/w) HPβCD solution, pH 7.3, aqueous with cosolvent or surfactant or cyclodextrin, thermodynamic from solid; 5% HPβCD (40.78 mmol/L); read-out: API Solubility
ENDPOINT: solubility at 24 h (µM)
Respond numerically; units are µM and should not be typed.

Incoming: What value of measured solubility at 24 h is listed for CC(=O)NCC1CCN(Cc2cc(Oc3ccc(N4CCN(CCC(=O)O)CC4)nc3)nc(-c3cc(Cl)cc(Cl)c3)c2)CC1 [Freeform Type D] ?
Outgoing: 660

====

# TEST_DETAILS: Equilibrium solubility in pH buffers (pH 4.0-6.0) with pH adjustment
# Format: physicochemical
# DETAILS: pH = 5.0 buffer (50 mM citrate)
Counter-ions that a name gives are not always drawn.
Please provide measured Area % (purity of supernatant) for the entries that follow.
Answer format: value, then unit.

Incoming: Which measured Area % (purity of supernatant) value corresponds to CC(=O)NCC1CCN(Cc2cc(Oc3ccc(N4CCN(CCC(=O)O)CC4)nc3)nc(-c3cc(Cl)cc(Cl)c3)c2)CC1 [Freeform Type A] ?
Outgoing: 99.6 Area %

Incoming: Record request: Area % (purity of supernatant) value, item CC(=O)NCC1CCN(Cc2cc(Oc3ccc(N4CCN(CCC(=O)O)CC4)nc3)nc(-c3cc(Cl)cc(Cl)c3)c2)CC1 [Sulfate Type B]
Outgoing: 99.4 Area %

Incoming: Item under review: CC(=O)NCC1CCN(Cc2cc(Oc3ccc(N4CCN(CCC(=O)O)CC4)nc3)nc(-c3cc(Cl)cc(Cl)c3)c2)CC1 [HCl salt Type F] . Reported Area % (purity of supernatant)?
Outgoing: 99.6 Area %

Incoming: Please give the measured Area % (purity of supernatant) for this compound: CC(=O)NCC1CCN(Cc2cc(Oc3ccc(N4CCN(CCC(=O)O)CC4)nc3)nc(-c3cc(Cl)cc(Cl)c3)c2)CC1 [Fumarate Type A]
Outgoing: 99.4 Area %
